// data source = ChEMBL document CHEMBL1201862

Reported GI50 values for the following compounds.
test system: K562; experiment: NCI tumour cell line growth inhibition, 48 h
Active and inactive are the calls of the source. Cut-off read from the data, not from the text of the source: active = GI50 up to about 1.1 µM and inactive = higher. Peptide text beside a SMILES is read from it.
Metric: GI50

# Compound, Metric, Observed
records = [
    ("O=C(c1ccccc1)C(c1ccccc1)C1(O)C(=O)Nc2c(Cl)ccc(Cl)c21 (configuration not stated)", "GI50", "12.5 µM (inactive)"),
    ("CC(=O)Nc1ccc(-c2nc3ccccc3s2)cc1", "GI50", "1.96 µM (inactive)"),
    ("Cc1cc(NS(=O)(=O)c2ccc(NC(=O)c3cccc4c(N)c5ccccc5nc34)cc2)no1", "GI50", "31.2 µM (inactive)"),
    ("COc1ccc(C)cc1-c1cc(Sc2ccccc2)c(-c2cc(C)ccc2OC)o1", "GI50", "> 31.6 µM (inactive)"),
    ("O=C(O)CSc1nnc(Cc2ccccc2)[nH]1", "GI50", "> 100 µM (inactive)"),
    ("CCOC(=O)C(N)CSC(=O)NC (configuration not stated)", "GI50", "45.3 µM (inactive)"),
    ("CC(C)COP(=O)(OCC(C)C)C(NS(=O)(=O)c1ccccc1)(C(F)(F)F)C(F)(F)F", "GI50", "4.8 µM (inactive)"),
    ("Cc1ccc2c(c1)-c1c(C#N)c(N)nc(-c3ccc(Cl)cc3)c1CCS2(=O)=O", "GI50", "2.8 µM (inactive)"),
    ("C=CCC1([C@H](C)[C@@H](OC(C)=O)c2cc(OC)c(OC)c(OC)c2)C[C@@H](OC)CCC1=O (some centres not stated)", "GI50", "16.4 µM (inactive)"),
    ("O=C(O)CSCc1cc2c(O)c(c1)Cc1cc(CSCC(=O)O)cc(c1O)Cc1cc(CSCC(=O)O)cc(c1O)Cc1cc(CSCC(=O)O)cc(c1O)C2", "GI50", "> 100 µM (inactive)"),
    ("CC(=O)NCCCCCCNC(C)=O [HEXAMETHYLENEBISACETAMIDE]", "GI50", "5740 µM (inactive)"),
    ("O=C(O)CC(CC(=O)O)C(=O)O", "GI50", "> 100 µM (inactive)"),
    ("CN(C)c1ccc([S+]([O-])Nc2ccccc2)cc1 (configuration not stated)", "GI50", "28.1 µM (inactive)"),
    ("O=C(NCCCCl)c1c(O)c2ccccc2[nH]c1=O", "GI50", "> 100 µM (inactive)"),
    ("CC(=O)NC(CS)C(=O)NC(CO)C(=O)NC(CO)C(=O)NC(Cc1c[nH]c2ccccc12)C(=O)N1CCCC1C(=O)NC(CO)C(=O)NC(Cc1c[nH]c2ccccc12)C(=O)NC(Cc1c[nH]cn1)C(=O)NC(CO)C(=O)NC(Cc1c[nH]c2ccccc12)C(=O)NCC(=O)NCC(=O)NC(C)C(=O)NC(CCC(N)=O)C(=O)NC(CCCCN)C(=O)NC(C)C(=O)NC(CCCNC(=N)N)C(=O)NC(CCCCN)C(N)=O (configuration not stated) (Ac-CSSWPSWHSWGGAQKARK-NH2; configuration not given here)", "GI50", "10.3 µM (inactive)"),
    ("COc1cc(/C=C2\\NC(=O)C(Cc3cc(OC)c(OC)c(C)c3OC)N(C(C)=O)C2=O)c(OC)c(C)c1OC (configuration not stated)", "GI50", "61.2 µM (inactive)"),
    ("CCC(C)C(C(=O)N/N=C1/SCC(=O)N1c1ccccc1)C(=O)N/N=C1/SCC(=O)N1c1ccccc1 (configuration not stated)", "GI50", "> 100 µM (inactive)"),
]
